system: HCC-2998 colon; assay: NCI tumour cell line growth inhibition, 48 h
Below, each of the compounds is paired with its reported log10(TGI) value.
Attribute measured: log10(TGI) (log10 of the value in µM)

Compound | Attribute measured | Recorded value
CO/C1=C\C(C)=C\C(C)C(O)C(C)C/C(C)=C/C=C/C(OC)C(C(C)C(O)C(C)C2(O)CC(O)C(C)C(C(C)C)O2)OC1=O (stereo not given) | log10(TGI) | 1.09
O=C1Sc2ccc(Br)cc2C(=O)Sc2ccccc21 | log10(TGI) | 1.47
O=c1nc(Nc2cccc(Cl)c2)oc2cc(Cl)oc(=O)c12 | log10(TGI) | 1.44
O=C(Nc1ccc(F)cc1)c1c(NC(=O)C(F)(F)F)sc2c1CCCCC2 | log10(TGI) | 1.00
NC1CCN(c2nc(Nc3cccc(C(F)(F)F)c3)c3c(=O)[nH]ccc3n2)CC1 | log10(TGI) | 0.48
Cn1ncc2c(N)nc(N3CCCCC3)nc21 | log10(TGI) | 1.77
O=C(c1ccc2ncc(-c3nc(NC4CC4)ncc3F)n2c1)N1CCOCC1 | log10(TGI) | 0.95
